experiment-notes: Ratio of PNS to the PN (Partition coefficient ratio between thio analogue to its oxo analogue)
readout: P ratio

[[record]]
smiles_representation = "Cc1cn([C@H]2CC[C@@H](CO)O2)c(=O)[nH]c1=S"
readout = "P ratio"
endpoint_value = 6.41

[[record]]
smiles_representation = "O=c1[nH]c(=S)ccn1[C@H]1CC[C@@H](CO)O1"
readout = "P ratio"
endpoint_value = 1.56

[[record]]
smiles_representation = "Cc1cn([C@H]2C=C[C@@H](CO)O2)c(=O)[nH]c1=S"
readout = "P ratio"
endpoint_value = 5.39


(1) O=c1[nH]c(=S)ccn1[C@H]1C=C[C@@H](CO)O1
(2) Cc1cn([C@H]2C[C@H](N=[N+]=[N-])[C@@H](CO)O2)c(=O)[nH]c1=S
In: Between 1 and 2 , whose recorded P ratio is greater? Please respond with the label that marks your chosen entry.
Out: 2

###

target-entity: Deoxycytidine kinase (Homo sapiens)
Sequence (P27707 whole entry): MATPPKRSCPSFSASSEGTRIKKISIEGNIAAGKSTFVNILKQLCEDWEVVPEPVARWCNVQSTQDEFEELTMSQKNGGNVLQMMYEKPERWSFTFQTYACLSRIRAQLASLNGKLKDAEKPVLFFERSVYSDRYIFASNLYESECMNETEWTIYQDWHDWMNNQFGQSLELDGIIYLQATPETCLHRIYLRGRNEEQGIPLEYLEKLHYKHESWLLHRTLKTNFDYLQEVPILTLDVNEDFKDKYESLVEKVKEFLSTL
readout: pKi
Value format note: pKi is -log10 of concentration (mol/L); just state the number.

In: Recorded pKi for Nc1ccn([C@H]2C=C[C@@H](CO)O2)c(=O)n1 with Deoxycytidine kinase (Homo sapiens), please?
Out: 2.34

###

Reported pIC50 by item:
Tested on: MT2
experiment-notes: Concentration of the drug resulting in 50% growth inhibition of normal, uninfected cells against HIV-1 replication in MT-2 cells.
Type: functional, cell-based
condition-set: Homo sapiens
Value format note: pIC50 is -log10 of concentration (mol/L); just state the number.

[[record]]
smiles_representation = "Cc1cn([C@H]2C=C[C@@H](CO)O2)c(=O)[nH]c1=O"
target_entity = "MT2"
readout = "pIC50"
endpoint_value = 4.15


Now turn to the next molecule.
In: Find the recorded pIC50 belonging to Cc1cn([C@H]2CC[C@@H](CO)O2)c(=O)[nH]c1=S and report it.
Out: 4.05

###

Reported pIC50 by item:
Test system: CCRF-CEM
experiment-notes: Concentration of the drug resulting in 50% growth inhibition of normal, uninfected cells against HIV-1 replication in CEM cells.
Assay type: functional, cell-based
condition-set: Homo sapiens
Value format note: pIC50 is -log10 of concentration (mol/L); just state the number.

[[record]]
compound = "Cc1cn([C@H]2CC[C@@H](CO)O2)c(=O)[nH]c1=S"
target_entity = "CCRF-CEM"
readout = "pIC50"
endpoint_value = 4.03


In: Find the recorded pIC50 belonging to Cc1cn([C@H]2C=C[C@@H](CO)O2)c(=O)[nH]c1=O [STAVUDINE] and report it.
Out: 3.63
